Target: Leucine aminopeptidase (Plasmodium falciparum (isolate 3D7)) (UniProt Q8IL11)
Sequence (Q8IL11 whole entry, looked up): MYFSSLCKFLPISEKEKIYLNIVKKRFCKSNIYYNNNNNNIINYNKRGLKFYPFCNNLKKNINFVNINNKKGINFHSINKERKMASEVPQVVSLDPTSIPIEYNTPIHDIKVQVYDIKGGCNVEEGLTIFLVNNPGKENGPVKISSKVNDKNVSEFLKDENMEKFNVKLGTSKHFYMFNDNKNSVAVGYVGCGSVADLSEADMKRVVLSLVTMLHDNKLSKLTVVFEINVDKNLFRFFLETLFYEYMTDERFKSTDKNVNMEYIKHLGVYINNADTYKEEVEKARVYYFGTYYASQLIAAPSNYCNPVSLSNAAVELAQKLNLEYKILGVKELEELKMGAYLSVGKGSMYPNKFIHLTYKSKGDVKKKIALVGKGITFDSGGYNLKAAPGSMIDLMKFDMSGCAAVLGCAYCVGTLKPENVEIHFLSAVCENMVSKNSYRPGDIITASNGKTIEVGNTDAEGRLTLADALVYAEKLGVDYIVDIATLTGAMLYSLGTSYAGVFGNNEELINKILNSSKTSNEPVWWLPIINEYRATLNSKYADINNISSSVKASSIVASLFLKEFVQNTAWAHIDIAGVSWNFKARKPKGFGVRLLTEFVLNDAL
Assay: P. falciparum M17LAP inhibitors, primary screen, biochemical, fluorogenic H-Leu-NHMec substrate, 1536-well (AID 1619);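 note: plate controls were full reaction with DMSO carrier for no effect and no enzyme background for full effect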
Conditions: recombinant M17LAP, H-Leu-NHMec fluorogenic kinetic assay; at 30 µM; active compounds read high
The whole screen tested about 220,000 compounds, of which about 830 (0.38%) were called active. The list is a sample of the results. Results with a measured potency or affinity are listed apart.
This listing pairs molecules with measured inhibition.

[[record]]
molecule = "CC(c1ccccc1)n1c(-c2cccs2)nc2c(c(=O)c3ccccc3n2C)c1=O (stereo not given)"
valueobserved = "7.83% (inactive)"

[[record]]
molecule = "CN(C(=O)CSc1nc(-c2ccccc2)c(-c2ccccc2)o1)C1CCS(=O)(=O)C1 (stereo not given)"
valueobserved = "5.76% (inactive)"

[[record]]
molecule = "CC(C)c1[nH]nc2c1C(c1cccnc1)C(C#N)=C(N)O2 (stereo not given)"
valueobserved = "13.5% (inactive)"

[[record]]
molecule = "CC1=C(C#N)C(=O)NC(=O)/C1=C\\c1ccc(-c2cc(C)c(C)cc2[N+](=O)[O-])o1"
valueobserved = "24.2% (inactive)"

[[record]]
molecule = "O=C(Cn1cc([N+](=O)[O-])cn1)Nc1cccnc1"
valueobserved = "1.1% (inactive)"


Inquiry: Bench note: what inhibition did Cc1[nH]nc2ncc(C(=O)c3cc(F)ccc3O)cc12 show?
Reply text: 9.66% (inactive)

Inquiry: Next molecule: CCCc1[nH]nc2c1C(c1ccc(O)c(OC)c1)C(C#N)=C(N)O2 (stereo not given)
Reply text: 29.1% (inactive)

Inquiry: Next molecule: O=C(c1nc(-c2ccccc2)n(-c2ccccc2)n1)N1CCN(S(=O)(=O)c2ccccc2)CC1
Reply text: -12.4% (inactive)

Inquiry: Next molecule: Nc1nc2ncc(C(=O)c3cc(F)ccc3O)cc2s1
Reply text: 12.6% (inactive)

Inquiry: Next molecule: Cc1ccc(NC(=O)/C(Cl)=C/c2ccccc2)cc1C
Reply text: 0.91% (inactive)
